Assignment: determine reported c-Met Inhibitory rate (%) for the given compounds.
Target: receptor tyrosine kinase c-Met (Homo sapiens)
Sequence (P08581 25-1390): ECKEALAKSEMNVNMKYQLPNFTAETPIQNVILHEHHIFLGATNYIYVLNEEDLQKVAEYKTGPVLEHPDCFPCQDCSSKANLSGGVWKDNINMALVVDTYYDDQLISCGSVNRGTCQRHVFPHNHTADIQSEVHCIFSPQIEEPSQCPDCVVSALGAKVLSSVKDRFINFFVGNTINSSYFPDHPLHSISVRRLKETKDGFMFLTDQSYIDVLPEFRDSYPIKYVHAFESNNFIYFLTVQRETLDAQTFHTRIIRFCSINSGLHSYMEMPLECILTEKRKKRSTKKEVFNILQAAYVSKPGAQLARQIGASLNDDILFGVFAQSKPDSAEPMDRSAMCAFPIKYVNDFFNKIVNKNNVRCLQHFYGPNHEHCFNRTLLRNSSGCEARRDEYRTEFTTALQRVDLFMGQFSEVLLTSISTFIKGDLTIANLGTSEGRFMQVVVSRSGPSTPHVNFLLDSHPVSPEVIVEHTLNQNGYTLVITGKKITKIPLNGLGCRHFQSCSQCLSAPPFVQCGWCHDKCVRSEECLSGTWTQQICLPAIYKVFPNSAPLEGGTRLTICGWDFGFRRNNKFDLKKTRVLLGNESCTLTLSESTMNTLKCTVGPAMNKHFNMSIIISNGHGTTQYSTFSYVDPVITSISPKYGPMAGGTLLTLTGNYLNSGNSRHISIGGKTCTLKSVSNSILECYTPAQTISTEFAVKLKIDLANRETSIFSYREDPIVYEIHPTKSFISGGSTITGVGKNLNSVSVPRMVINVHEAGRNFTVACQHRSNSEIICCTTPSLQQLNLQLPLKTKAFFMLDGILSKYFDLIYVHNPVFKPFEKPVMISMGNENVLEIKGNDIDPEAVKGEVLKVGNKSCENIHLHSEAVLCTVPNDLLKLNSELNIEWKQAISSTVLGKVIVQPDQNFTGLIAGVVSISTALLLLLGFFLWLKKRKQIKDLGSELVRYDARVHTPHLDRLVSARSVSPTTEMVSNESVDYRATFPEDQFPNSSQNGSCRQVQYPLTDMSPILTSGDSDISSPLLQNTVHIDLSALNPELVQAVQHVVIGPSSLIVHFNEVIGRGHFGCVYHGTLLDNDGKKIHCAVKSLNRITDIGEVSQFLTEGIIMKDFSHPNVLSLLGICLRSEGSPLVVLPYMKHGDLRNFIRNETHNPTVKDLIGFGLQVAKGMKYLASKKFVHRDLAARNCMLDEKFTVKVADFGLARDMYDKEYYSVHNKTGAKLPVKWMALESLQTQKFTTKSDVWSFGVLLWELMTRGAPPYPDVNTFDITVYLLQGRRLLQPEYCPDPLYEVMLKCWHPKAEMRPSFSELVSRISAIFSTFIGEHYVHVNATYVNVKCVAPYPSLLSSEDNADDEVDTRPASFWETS
Assay: In vitro c-Met kinase inhibitory activity
Assay type: biochemical
Settings: 10 nM; two values per compound; 0.01 µM
Give bare numbers, in %.

// known answers, use as guide
{"columns": ["Smiles Entry", "Outcome Measure", "Number"],
 "data": [
  ["COc1cc2nccc(Oc3ccc(NC(=O)c4c5n(n(-c6ccccc6)c4=O)CCCC5)cc3F)c2cc1OC", "c-Met Inhibitory rate (%)", 97.6],
  ["O=C(Nc1ccc(Oc2ncnc3cc4c(cc23)OCCOCCOCCO4)c(Cl)c1)c1c2n(n(-c3ccc(F)cc3)c1=O)CCCC2", "c-Met Inhibitory rate (%)", 85.9],
  ["COCCOc1cc2ncnc(Oc3ccc(NC(=O)c4c5n(n(-c6cc(F)ccc6F)c4=O)CCCC5)cc3Cl)c2cc1OCCOC", "c-Met Inhibitory rate (%)", 58.3],
  ["COc1cc2ncnc(Oc3ccc(NC(=O)c4c5n(n(-c6ccccc6)c4=O)CCCC5)cc3F)c2cc1OC", "c-Met Inhibitory rate (%)", 89.2],
  ["O=C(Nc1ccc(Oc2ncnc3cc4c(cc23)OCCOCCOCCO4)c(F)c1)c1c2n(n(-c3cc(F)ccc3F)c1=O)CCCC2", "c-Met Inhibitory rate (%)", 56.2],
  ["COCCOc1cc2ncnc(Oc3ccc(NC(=O)c4c5n(n(-c6ccc(F)cc6)c4=O)CCCC5)c(F)c3)c2cc1OCCOC", "c-Met Inhibitory rate (%)", 58.1],
  ["COc1cc2ncnc(Oc3ccc(NC(=O)c4c5n(n(-c6cc(F)ccc6F)c4=O)CCCC5)cc3F)c2cc1OC", "c-Met Inhibitory rate (%)", 92.3],
  ["COc1cc2ncnc(Oc3ccc(NC(=O)c4c5n(n(-c6cc(F)ccc6F)c4=O)CCCC5)cc3)c2cc1OC", "c-Met Inhibitory rate (%)", 57.0]
]}

Below: the item to evaluate.
[in] # return c-Met Inhibitory rate (%) for COCCOc1cc2ncnc(Oc3ccc(NC(=O)c4c5n(n(-c6cc(F)ccc6F)c4=O)CCCC5)cc3F)c2cc1OCCOC , test system: receptor tyrosine kinase c-Met (Homo sapiens)
[out] 80.5

###

Molecular target: receptor tyrosine kinase AXL (Homo sapiens, UniProt P30530)
Construct: 50 μL of AXL kinase domain recombinant protein diluted in reaction buffer was added to start the reaction; made in house; host or cells: insect cells (baculovirus expression system)
Sequence (P30530 536-807 limits assumed): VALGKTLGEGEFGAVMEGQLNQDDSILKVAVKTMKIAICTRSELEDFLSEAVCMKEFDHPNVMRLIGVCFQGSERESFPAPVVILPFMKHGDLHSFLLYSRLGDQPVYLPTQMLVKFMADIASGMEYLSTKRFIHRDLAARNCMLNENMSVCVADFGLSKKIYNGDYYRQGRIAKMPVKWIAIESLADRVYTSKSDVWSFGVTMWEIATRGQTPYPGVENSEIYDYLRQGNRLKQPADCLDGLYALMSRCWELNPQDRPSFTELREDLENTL
Test: Enzyme activity of receptor tyrosine kinase AXL (ELISA)
Type: biochemical
Details: 10 nM; read-out: AXL activity Inhibitory rate(%)
Assignment: determine reported inhibition at 0.01 µM for the given compounds.
Numbers only, in %.

// known answers, use as guide
{"columns": ["Smiles Entry", "Tested Target", "inhibition at 0.01 µM (%)"],
 "data": [
  ["O=C(Nc1ccc(Oc2ncnc3cc4c(cc23)OCCOCCOCCO4)c(F)c1)c1c2n(n(-c3cc(F)ccc3F)c1=O)CCCC2", "receptor tyrosine kinase AXL (Homo sapiens, UniProt P30530)", 60.5],
  ["COCCOc1cc2ncnc(Oc3ccc(NC(=O)c4c5n(n(-c6cc(F)ccc6F)c4=O)CCCC5)c(F)c3)c2cc1OCCOC", "receptor tyrosine kinase AXL (Homo sapiens, UniProt P30530)", 58.2],
  ["COCCOc1cc2ncnc(Oc3ccc(NC(=O)c4c5n(n(-c6ccc(F)cc6)c4=O)CCCC5)c(F)c3)c2cc1OCCOC", "receptor tyrosine kinase AXL (Homo sapiens, UniProt P30530)", 54.4]
]}

Below: the item to evaluate.
[in] # return inhibition at 0.01 µM for O=C(Nc1ccc(Oc2ncnc3cc4c(cc23)OCCOCCOCCO4)c(F)c1)c1c2n(n(-c3ccccc3F)c1=O)CCCC2 , test system: receptor tyrosine kinase AXL (Homo sapiens, UniProt P30530)
[out] 45.8
